# Assay remarks: differential killing of epithelial or mesenchymal cells, primary screen, imaging, PC-3E GFP, TEM4-18 mCherry, co-culture (AID 1345086);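 note: cells exposed to compound for 72 h before imaging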
# Condition info: imaging cell counts, measured here: epithelial PC-3E GFP cell survival, at 1 µM
Please respond with reported normalised cell number for every item in the list.
Numbers only.

Consider the following illustrative entries.
{"Molecule": "CC1=C2C(O)C(=O)OC3CC4C(C)(C)C(=O)C=C[C@]4(C)C(CC1)[C@]23C (stereo not given in full)", "normalised cell number": 0.98}
{"Molecule": "CC(=O)O[C@H]1C[C@@H](OC(C)=O)C(C)(C)C2C[C@@H](OC(C)=O)[C@@]3(C)C4=CC(=O)O[C@@H](c5ccoc5)[C@]4(C)CCC3[C@]21C (stereo not given in full)", "normalised cell number": 1}
{"Molecule": "O=C(O)Cc1ccc(-c2ccccc2)cc1", "normalised cell number": 1.44}
{"Molecule": "CCNC(=O)CC[C@H](N)C(=O)O", "normalised cell number": 1.09}
{"Molecule": "NC1=NCCN1CC(=O)O", "normalised cell number": 1.1}

List reported normalised cell number for each of these molecules:
1. N=C(N)N1CCc2ccccc2C1
2. c1ccc2c(c1)CN1CCCC1=N2

1. 1.22
2. 0.94

Give measured normalised cell number for every item shown.
1. COCCCOc1ccnc(CS(=O)c2nc3ccccc3[nH]2)c1C (stereo not given)
2. CCCCCCCCCc1ccc(OCCOCCOCCOCCOCCOCCOCCOCCOCCO)cc1
3. COc1ccc2c(=O)c(OC)c(-c3ccccc3)oc2c1
4. COc1ccc2c(C)cc(=O)oc2c1
5. C=C1CCC(C2CC(=O)OC2=O)C(=O)CCC2C1CC2(C)C (stereo not given)
6. CCC1NC(=O)c2cc(S(N)(=O)=O)c(Cl)cc2N1 (stereo not given)

1.16
1.14
1.07
1.13
1.27
1.22

// for each molecule below, give its normalised cell number
1. COc1cc(C(C)=O)cc(OC)c1O
2. CC1(C)S[C@@H]2[C@H](NC(=O)Cc3ccccc3)C(=O)N2[C@H]1C(=O)O
3. COc1cc(-c2coc3cc(O[C@@H]4O[C@H](CO)[C@@H](O)[C@H](O)[C@H]4O)c(OC)c(O)c3c2=O)cc(O)c1OC
4. CCN(CC)CCNC(C(=O)OCCC(C)C)c1ccccc1 (stereo not given)

1. 0.87
2. 0.85
3. 0.99
4. 0.66

Each molecule below has a reported value. Please supply its normalised cell number.
1. COc1cc2ccc(=O)oc2c(OC)c1OC
2. O=C(O[C@@H]1Cc2c(O)cc(O)cc2O[C@@H]1c1ccc(O)c(O)c1)c1cc(O)c(O)c(O)c1
3. O=c1ccc2ccc(O)cc2o1
4. Cc1cc(NS(=O)(=O)c2ccc(N)cc2)no1
5. CC1=CC2C(CC1=O)C(C)=CCC2C(C)C (stereo not given)

[0.81, 0.85, 1.05, 1.05, 1.06]
